Test system: CAKI-1 renal
Method Notes: NCI-60 one-dose screen, 48 h (100 = growth as untreated, 0 = no growth, -100 = all killed)
Condition Notes: 10 µM unless noted
This is part of a sample that, as a whole, favours compounds with a hit. Of some 83,000 tested, about 20% had one in any assay.
Where growth equals or exceeds 40%, the correct label is 1.0; where it does not, the label is 0.0.

Worked cases, answers included:
Molecule	Assigned Label
COc1cc2c(=O)n(CC3CCCCC3)c3c4cc[nH]c4ncc3c2cc1OC	0.0
O=C(CCN1CCOCC1)Nc1ccc(Cn2nnc3c2C(=O)c2nnn(Cc4ccc(NC(=O)CCN5CCOCC5)cc4)c2C3=O)cc1	1.0
O=C1c2cc3c(cc2-c2c1c1cc(F)c(F)cc1c(=O)n2C[C@H](O)CO)OCO3	0.0
O=c1c2cccc3c(Nc4ccccn4)ccc(c32)c2nc3ccccc3n12	1.0
CSc1nc(NCCCNc2ccnc3cc(Cl)ccc23)cc(-c2ccccc2)n1	1.0

We next turn to a different molecule, shown below.
Lookup: Record CCCCCCCCSC1=CC(=O)C(OC)=C(OC)C1=O ; criterion: growth no lower than 40%. Met?
Found: 0.0

###

Test system: SK-MEL-5 melanoma
Method Notes: NCI-60 one-dose screen, 48 h
Condition Notes: 10 µM unless noted
Compounds without any hit were thinned out: in the full panel of roughly 83,000, 20% have a hit. Calls of active or inactive are those of the source. Rule for the calls: active = growth percent below 10; inactive = the rest.
Form entry, call: pick from active, inactive

Compound	Assigned Label
COc1ccc2nc3cc(Cl)ccc3c(NCCNCC(O)CO)c2c1 (configuration not stated)	inactive
OC(c1cc(-c2ccccc2)nc2ccc(Cl)cc12)C1CCCCN1 (configuration not stated)	active
CCC(C)[C@@H]1NC(=O)[C@@H]2CCCN2C(=O)[C@H](Cc2ccccc2)NC(=O)[C@@H]2CCCN2C(=O)[C@H](Cc2ccccc2)NC(=O)[C@@H]2CCCN2C(=O)[C@H](Cc2ccccc2)NC1=O (some centres not stated)	inactive
COc1ccc(/C=N\NC(=O)c2ccncc2)cc1O	inactive
Clc1nc(Cl)c2c3c(sc2n1)CCCC3	inactive
COc1cccc(-c2nc3sccn3c2-c2ccnc(NCCCNS(=O)(=O)c3ccccc3)c2)c1	active

Lookup: Per the assay record, what outcome was assigned to Cc1cc(Nc2nc(-c3cccnc3)nc3ccccc23)n[nH]1 ?
Found: inactive

Lookup: Could you kindly confirm the outcome this assay logged for COc1ccc(C2Nc3ccccc3-n3cccc32)cc1 (configuration not stated) ?
Found: inactive

Lookup: Given O=C(COCc1c(-c2ccccc2)no[n+]1[O-])Nc1ccc(C(=O)/C=C/c2ccc3c(c2)OCO3)cc1 , state the outcome it received in this test.
Found: inactive

###

Tested on: UO-31 renal
Method Notes: NCI-60 one-dose screen, 48 h (100 = growth as untreated, 0 = no growth, -100 = all killed)
Condition Notes: 10 µM unless noted
The panel holds about 83,000 compounds, 20% with a hit somewhere; the sample as a whole holds those more often.
Item-by-item account of growth
Give your result in % as a bare value.

Example entries begin here.
>>> print(df.to_string())
                    structure_smiles_string  readout_label  numeric_value
0  O=C(CO[N+](=O)[O-])Nc1ccc(C(=O)/C=C/c2ccc3c(c2)OCO3)cc1         growth           77.1
1       Oc1ccc2c(=S)cc(-c3ccc(Br)cc3)oc2c1O         growth           17.4

Next item in the queue.
O=C(Nc1ccc(Oc2ccc(F)cc2)c(Cl)c1)c1cccnc1 has a reported growth of 80.9

###

System: SK-MEL-5 melanoma
Method Notes: NCI-60 one-dose screen, 48 h (100 = growth as untreated, 0 = no growth, -100 = all killed)
Condition Notes: 10 µM unless noted
Compounds without any hit were thinned out: in the full panel of roughly 83,000, 20% have a hit.
growth reference
Output spec: scalar in %, unitless text.

                                   compound  readout_label  numeric_value
0  Nc1nc2ccc(-c3nc4ccc5[nH]ncc5c4c4c3CCC4)cc2s1         growth           1.24
1               Oc1c(Cl)cc(Cl)cc1CNc1nccnn1         growth            102
2  CNCCCn1c2c(c3ccc([N+](=O)[O-])cc3c1=O)C(=O)c1cc(OC)cnc1-2         growth          -98.8
3  COC(=O)[C@@H]1CC[C@]2(C)[C@H](CC[C@@H]3O[C@@]32C)[C@@]1(C)CC(=O)c1ccoc1         growth           97.4
4         CCN(CC)CC(C)(C)C(=O)/C=C/c1ccccc1         growth           81.9
5  COc1ccc(-c2cc(/C=C3\C(=O)Nc4ccc(Cl)cc43)[nH]n2)cc1         growth           37.9
6  O=S(=O)(NCCCNc1cc(-c2cn(-c3ccccc3)nc2-c2ccccc2)ccn1)c1ccc(C(F)(F)F)cc1         growth           36.8
7  COc1ccc(-c2nn(-c3ccccc3)cc2/C=C2\SC(=O)NC2=O)cc1         growth           83.1

Recorded growth (compound COC(/C=C/c1ccc([N+](=O)[O-])cc1)OC ): 98.3

Summary for this compound, O=C(O)c1cn(C2CC2)c2cc(N3CCN(Cc4nc5c(cnn5-c5ccc([N+](=O)[O-])cc5)c(=O)[nH]4)CC3)c(F)cc2c1=O : growth is 99

###

System: NCI-H23 lung
Method Notes: NCI-60 one-dose screen, 48 h (100 = growth as untreated, 0 = no growth, -100 = all killed)
Condition Notes: 10 µM unless noted
The panel holds about 83,000 compounds, 20% with a hit somewhere; the sample as a whole holds those more often.
Readout Label: growth (%)
Give just the number in %; leave the unit off.

growth reported for this compound CCCCCCCCCCCCS(=O)CC(C)O (stereo not drawn) : 115

Item: C=C1CC2(OC1=O)C(=O)Nc1ccccc12 (stereo not drawn) | growth: 67.7

Measured growth, O=C(CCN1CCOCC1)Nc1ccc(Cn2nnc3c2C(=O)c2nnn(Cc4ccc(NC(=O)CCN5CCOCC5)cc4)c2C3=O)cc1 : -20.9

For Cc1ccc(-c2nc(/C=N/Nc3cc(C)nc4ccc(Cl)cc34)c(C)o2)cc1 the compound record lists growth as 44.5

growth recorded for this compound, COc1cccc(/C=C2/C(=O)N(Cc3ccco3)SC2=S)c1OC , is 108

###

Test system: A549/ATCC NSCLC
Method Notes: NCI-60 one-dose screen, 48 h (100 = growth as untreated, 0 = no growth, -100 = all killed)
Condition Notes: 10 µM unless noted
About 83,000 compounds went through this panel and 20% of them were active in at least one assay; those are over-represented in the sample as a whole.
growth reference
All answers are understood in %, so give the number only.

>>> print(df.to_string())
                                   compound    tested_target  unit  numeric_value
0  COc1ccc(-c2nn(-c3ccccc3)cc2/C=C2\SC(=O)NC2=O)cc1  A549/ATCC NSCLC     %            105
1  COc1cnc2c(c1)C(=O)c1c-2n(CCCN2CCN(C)CC2)c(=O)c2cc([N+](=O)[O-])ccc12  A549/ATCC NSCLC     %          -78.9
2  C=CC[N+]1(CCO)CCN=C1CCCCCCCCCCCCC (stereo unspecified)  A549/ATCC NSCLC     %          0.535
3  Cc1ccc(-c2nc(/C=N/Nc3cc(C)nc4ccc(Cl)cc34)c(C)o2)cc1  A549/ATCC NSCLC     %          -47.4
4  Cc1cccc(NC(=O)c2sc3nc4c(cc3c2N)C(=O)CCC4)c1  A549/ATCC NSCLC     %           31.4

Reported growth for COc1cc(C(=O)/C=C/c2c(C)n([O-])c3ccc(C)cc3[n+]2=O)cc(OC)c1OC was 85.8

Measured growth of O=C(/C=C\c1ccc2ccccc2n1)c1cc(Cl)ccc1O : 104

For reference, reported growth for CC/C=C\C[C@H](O)C/C=C1/C(=O)C=C[C@@H]1C/C=C\CCCC(=O)NC stands at -36.7

Data point: COc1ccc(S(=O)(=O)NCCNc2nccc(-c3c(-c4cccc(N)c4)nc4sccn34)n2)cc1 ; growth = 99.6

Memo: CCCCNc1ccc2c3c1cccc3c(=O)n1c3ccccc3nc21 , reported growth: 76.6

###

Tested on: SF-295 CNS
Method Notes: NCI-60 one-dose screen, 48 h (100 = growth as untreated, 0 = no growth, -100 = all killed)
Condition Notes: 10 µM unless noted
Procedure: Cells are grown in 96 well plates and exposed to the test compound for 48 hours. Compounds are tested at a single concentration, which is 10^-5 M for most compounds. The reported endpoint is percent growth (GI% or GIPRCNT), where numbers from 0 - 100% represent growth inhibition, and numbers from -100% - 0 represent cell death. For example, a value of 40 represents 60% growth inhibition. A value of 0 means no net growth occurred over the course of the experiment. […]
About 83,000 compounds went through this panel and 20% of them were active in at least one assay; those are over-represented in the sample as a whole.
Readout Label: growth (%)
Answer with a number only, understood to be in %.

The examples below pair each entry with its known result.
>>> df
                                   compound  numeric_value
0  CCN(CC)C12CCCCC1(C)C(C#N)(C#N)C(C#N)=C(N)O2 (stereo not given)             98
1  Cc1ccc(/C=C2\Oc3cc(OCC(=O)c4ccc(Cl)cc4)ccc3C2=O)cc1            114
2  N#Cc1ccc(NC(=O)Nc2ccc(Cc3ccc(NC(=O)Nc4ccc(C#N)cc4)cc3)cc2)cc1           12.1

compound COc1cc(C(=O)/C=C/c2c(C)n([O-])c3ccc(C)cc3[n+]2=O)cc(OC)c1OC , growth observed: 110

Record N#CC1=C(N)Oc2c(ccc3ccccc23)C1c1cccs1 (stereo not given) . Reported growth: 24.7
